Recorded values, source patent US20240182561A1.

Provide the recorded EC50/IC50, indirect cell killing, HEK293/mCACNG1 for the entries that follow.
Molecular target: T1, mouse CACNG1 expressed on cells (mouse, UniProt O70578 1-223)
T1 sequence (looked up): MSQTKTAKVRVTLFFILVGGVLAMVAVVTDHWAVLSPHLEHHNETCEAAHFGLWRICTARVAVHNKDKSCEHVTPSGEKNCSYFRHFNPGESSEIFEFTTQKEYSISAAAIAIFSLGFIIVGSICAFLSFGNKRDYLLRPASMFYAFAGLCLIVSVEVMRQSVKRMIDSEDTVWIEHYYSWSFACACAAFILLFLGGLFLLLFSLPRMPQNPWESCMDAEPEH
Experiment: cell-based or functional assay
Output spec: scalar in nM, unitless text.

// recorded EC50/IC50, indirect cell killing, HEK293/mCACNG1 for REGN7660 (antibody, human IgG4 S228P, kappa, V domains shown, hIgG4) VH: EVQLVESGGGLVQPGGSLKLSCTASGLTLSDSAMHWVRQASGKGLEWVGRIRNKANRYATEYAASVKGRFTISRDDSKNTAYLQMNSLKTEDTAVYYCTRNWKIFLFDYWGQGTLVTVSS VL: EIVLTQSPGTLTLSPGERATLSCRASQSVGSKYLAWFQQKRGQAPRLLIYGASSRTSGIPDRISGSGSGTDFTLTISRLEPEDFAVYYCQQYGSSPWTFGQGTKVEIKR : 0.0134

Record REGN9909 (antibody, mouse IgG2a, kappa, V domains shown, mIgG2a) VH: EVQLLESGGGLVQPGGSLRLSCAASGFTFNNYGMSWVRQGPGKGLEWVSSISGSGGTTFYADSVKGRFTISRDNSKNTLYLQMNSLRAEDTAVYYCGKGGYCSSSGCRHYGMDVWGQGTTVTVSS VL: QSVLTQPPSASGTPGQRVTISCSGSSSNIGNNYIYWYQRLPGTTPKLLIYRNNQRPSGVPDRFSGSKSGTSASLAISGLRSEDEADYYCAAWDDTLSGYVFGTGTKVTVLR , field EC50/IC50, indirect cell killing, HEK293/mCACNG1: 0.0612
